B1: KRT15 (parent)
chain: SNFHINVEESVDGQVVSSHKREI

# Variants of: B1
# Measurement Notes: protein stability index of a GFP-peptide fusion (GPS, HEK-293T) (PSI 1-6); higher = more stable;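 further: lentivirally expressed fusions sorted by FACS into six bins by GFP to DsRed ratio, PSI derived from sequencing read proportions per bin multiplied by bin number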
# Applied Conditions: c terminus: native
Observation Type: protein stability index
Quick one: just the number, no unit, thanks!

E8S: 2.03
V15P: 2.84
E22T: 4.46

Write down protein stability index measured for item K20I
2.45

Look up and state reported protein stability index for I23Y
4.55

Could you please provide reported protein stability index for V16H ? Thanks!
1.2

For the variant S17G , give its reported protein stability index.
2.73

Given F3M , respond with its protein stability index.
2.2

Using known records, supply protein stability index for N6Q
2.27

Supply protein stability index value. Item: E8V
1.32

Give the reported protein stability index for this variant. H19N
4.44

Please supply the value of reported protein stability index for the item R21C
4.43

Find the measured protein stability index of S1P and report it.
2.35

Please list protein stability index recorded for the variant D12R
3.65

Give protein stability index for the following variant: E8Y
2.88

Identify the reported protein stability index for the following entry. N6S
1.63
